Molecular target: PSOMT1 ((R,S)-reticuline 7-O-methyltransferase) (Papaver somniferum, UniProt Q6WUC2)
Construct: The full-length cDNA generated by RT-PCR was ligated into pFastBac HTa; His6 (N); made in house; host or cells: Spodoptera frugiperda Sf9 (baculovirus, pFastBac HTa)
Sequence (Q6WUC2 whole entry): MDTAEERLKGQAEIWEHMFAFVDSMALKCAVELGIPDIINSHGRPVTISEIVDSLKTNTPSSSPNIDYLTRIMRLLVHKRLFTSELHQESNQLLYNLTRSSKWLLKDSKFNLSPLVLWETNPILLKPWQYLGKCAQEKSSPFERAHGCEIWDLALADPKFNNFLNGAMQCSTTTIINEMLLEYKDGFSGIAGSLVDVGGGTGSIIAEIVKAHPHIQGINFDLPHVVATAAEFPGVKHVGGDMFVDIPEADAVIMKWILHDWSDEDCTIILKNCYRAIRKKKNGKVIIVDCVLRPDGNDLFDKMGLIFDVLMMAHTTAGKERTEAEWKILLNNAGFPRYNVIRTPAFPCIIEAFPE
Format: biochemical
Conditions: 100% activity = 1.5 pmoles/sec/mg total protein; radioassay
Test Readout: Substrate specificity, relative activity of PSOMT1 (%)

1. COc1cc(C[C@@H]2c3cc(O)c(OC)cc3CCN2C)ccc1O (racemic) [(R,S)-Orientaline] | 48
2. O=c1c(O)c(-c2ccc(O)cc2O)oc2cc(O)cc(O)c12 | 0
3. Oc1ccc(CC2NCCc3cc(O)c(O)cc32)cc1 (racemic) [(R,S)-Norcoclaurine] | 0
4. COc1ccc2c(c1)CCN[C@H]2Cc1ccc(OC)c(O)c1 [(S)-7-Dehydroxy-norreticuline] | 0
5. O=c1c(O)c(-c2ccc(O)c(O)c2)oc2cc(O)cc(O)c12 | 0
6. COc1cc2c(cc1O)[C@H](Cc1ccc(O)cc1)NCC2 [(S)-Coclaurine] | 0
7. COc1cc(CC2NCCc3cc(OC)c(O)cc32)ccc1O (racemic) [(R,S)-Nororientaline] | 0
8. O=C(O)/C=C/c1ccc(O)c(O)c1 | 0
9. COc1ccc(C[C@H]2NCCc3cc(OC)c(O)cc32)cc1O [(R)-Norreticuline] | 0
10. COc1cc2c(cc1O)[C@H](Cc1ccc(OC)c(OC)c1)N(C)CC2 (racemic) [(R,S)-Codamine] | 0
11. COc1ccc2c(c1)CCN[C@@H]2Cc1ccc(OC)c(O)c1 [(R)-7-Dehydroxy-norreticuline] | 0
12. COc1cc(CC2c3cc(OC)c(O)cc3CCN2C)ccc1O (racemic) [(R,S)-Isoorientaline] | 46
13. COc1ccc(C[C@@H]2c3cc(OC)c(O)cc3CCN2C)cc1O [(R)-Protosinomenine] | 52
14. COc1ccc(C[C@@H]2NCCc3cc(O)c(OC)cc32)cc1O [(S)-Norprotosinomenine] | 0
15. COc1cc(C(=O)O)ccc1O | 0
16. COc1ccc(C(=O)O)cc1O | 40
17. Oc1ccccc1O | 0
18. COc1cc2c(cc1O)C(Cc1ccc(O)c(O)c1)N(C)CC2 (racemic) [(R,S)-6-O-Methyllaudanosoline] | 0
